B1: APBB1IP (parent)
chain: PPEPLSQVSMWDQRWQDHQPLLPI

Variants of: B1
procedure summary: protein stability index of a GFP-peptide fusion (GPS, HEK-293T) (PSI 1-6); higher = more stable;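 also: lentivirally expressed fusions sorted by FACS into six bins by GFP to DsRed ratio, PSI derived from sequencing read proportions per bin multiplied by bin number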
measurement setup: c terminus: a fixed tail appended
value type: protein stability index

>>> print(df.to_string())
    mutant_code               value_type  numeric_result
 0          S9Q  protein stability index            3.28
 1          V8D  protein stability index            4.03
 2         L21R  protein stability index            3.58
 3         R14N  protein stability index            3.86
 4         W15Q  protein stability index            4.36
 5         Q16P  protein stability index            3.84
 6         D12G  protein stability index            2.15
 7         D17I  protein stability index            2.57
 8         Q16E  protein stability index            2.92
 9          S6V  protein stability index            2.73
10         I24S  protein stability index            3.55
11         R14I  protein stability index            3.14
12         W15E  protein stability index            4.03
13         Q13L  protein stability index            2.16
14          P4F  protein stability index            2.44
15         M10L  protein stability index            3.16
16          S6M  protein stability index            2.82
17         D17R  protein stability index            2.91
18         H18N  protein stability index            2.97
19         I24H  protein stability index            3.58
20          Q7P  protein stability index            3.25
21         L22K  protein stability index            4.04
